Assay: Cytotoxicity against human neutrophils by LDH release assay
Assay type: cell-based
Conditions: neutrophil
Starred links: 1 amine or outer side, 2 acyl side, 3 side chain; linkers in the order of their positions; H or OH if unused. Non-standard residues stand in square brackets, D forms with d. Residues, ends and D or L forms follow the SMILES beside them. ξ: configuration not given here. X1 = C[C@H]1CCN([*:1])[C@@H]1C(=O)[*:2]; X2 = CC1CCN([*:1])[C@@H]1C(=O)[*:2]; Hica(2S) = CC(C)C[C@H](O)C(=O)O; ξLac(3-iPr) = CC(C)CC(O)C(=O)O; NMeV = CN[C@H](C(=O)O)C(C)C; βAla = NCCC(=O)O
property: Activity

- CC(C)CC1OC(=O)CCNC(=O)[C@H](C(C)C)N(C)C(=O)[C@H](C(C)C)N(C)C(=O)[C@H](Cc2ccccc2)NC(=O)[C@@H]2C(C)CCN2C1=O (stereo not given in full) [ISARIDIN C2] (cyclo(F[NMeV][NMeV][βAla][ξLac(3-iPr)][X2])): Non-toxic
- CC(C)CC1OC(=O)CCNC(=O)[C@H](C(C)C)N(C)C(=O)[C@H](C(C)C)N(C)C(=O)[C@H](Cc2ccccc2)NC(=O)[C@@H]2CCCN2C1=O (stereo not given in full) [ISARIDIN E] (cyclo(F[NMeV][NMeV][βAla][ξLac(3-iPr)]P)): Non-toxic
- CC[C@H](C)[C@@H]1NC(=O)[C@@H]2[C@@H](C)CCN2C(=O)[C@@H](CC(C)C)OC(=O)CCNC(=O)[C@H](C)N(C)C(=O)[C@H](C(C)C)N(C)C1=O: Non-toxic
- CC(C)C[C@@H]1OC(=O)CCNC(=O)[C@H](C(C)C)N(C)C(=O)[C@H](C(C)C)NC(=O)[C@H](Cc2ccccc2)NC(=O)[C@@H]2CCCN2C1=O (cyclo(FV[NMeV][βAla][Hica(2S)]P)): Non-toxic
- CC(C)C[C@@H]1OC(=O)CCNC(=O)[C@H](C(C)C)N(C)C(=O)[C@H](C(C)C)NC(=O)[C@H](Cc2ccccc2)NC(=O)[C@@H]2[C@@H](C)CCN2C1=O (cyclo(FV[NMeV][βAla][Hica(2S)][X1])): Non-toxic

====

IC50 listing for selected compounds.
Assay: Antiinflammatory activity in human neutrophils assessed as inhibition of FMLP-induced elastase release treated 5 mins before FMLP addition
Assay type: functional, cell-based
Conditions: Neutrophil
Starred links: 1 amine or outer side, 2 acyl side, 3 side chain; linkers in the order of their positions; H or OH if unused. Non-standard residues stand in square brackets, D forms with d. Residues, ends and D or L forms follow the SMILES beside them. ξ: configuration not given here. X1 = C[C@H]1CCN([*:1])[C@@H]1C(=O)[*:2]; X2 = CC1CCN([*:1])[C@@H]1C(=O)[*:2]; Hica(2S) = CC(C)C[C@H](O)C(=O)O; ξLac(3-iPr) = CC(C)CC(O)C(=O)O; NMeV = CN[C@H](C(=O)O)C(C)C; βAla = NCCC(=O)O
property: IC50 (µM)

- CC(C)CC1OC(=O)CCNC(=O)[C@H](C(C)C)N(C)C(=O)[C@H](C(C)C)N(C)C(=O)[C@H](Cc2ccccc2)NC(=O)[C@@H]2CCCN2C1=O (stereo not given in full) [ISARIDIN E] (cyclo(F[NMeV][NMeV][βAla][ξLac(3-iPr)]P)): 12.8
- CC(C)C[C@@H]1OC(=O)CCNC(=O)[C@H](C(C)C)N(C)C(=O)[C@H](C(C)C)NC(=O)[C@H](Cc2ccccc2)NC(=O)[C@@H]2[C@@H](C)CCN2C1=O (cyclo(FV[NMeV][βAla][Hica(2S)][X1])): 10
- O=c1c(-c2ccc(O)cc2)coc2cc(O)cc(O)c12 [GENISTEIN]: 6.72
- CC[C@H](C)[C@@H]1NC(=O)[C@@H]2[C@@H](C)CCN2C(=O)[C@@H](CC(C)C)OC(=O)CCNC(=O)[C@H](C)N(C)C(=O)[C@H](C(C)C)N(C)C1=O [ROSEOCARDIN]: 15.1
- CC(C)CC1OC(=O)CCNC(=O)[C@H](C(C)C)N(C)C(=O)[C@H](C(C)C)N(C)C(=O)[C@H](Cc2ccccc2)NC(=O)[C@@H]2C(C)CCN2C1=O (stereo not given in full) [ISARIDIN C2] (cyclo(F[NMeV][NMeV][βAla][ξLac(3-iPr)][X2])): 12.1

Value source: ChEMBL document CHEMBL2407014
